# SYSTEM TESTED: T1, human TIGIT-Fc (human, UniProt Q495A1 22-141, limits assumed)
# T1 construct: not shown: Fc; not described
# T1 sequence (looked up): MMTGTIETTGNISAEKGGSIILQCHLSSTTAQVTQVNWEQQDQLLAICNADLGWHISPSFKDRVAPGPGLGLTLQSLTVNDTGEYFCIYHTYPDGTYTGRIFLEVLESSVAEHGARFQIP
# PROTOCOL TEXT: CD155 competition ELISA, single point; note: test concentration or dose not given here
Readings of OD (450 nm) for the listed binders
EXPERIMENTAL ENDPOINT: OD (450 nm) (OD)

INSERT INTO assay_data (binder, numeric_result) VALUES
  ('TIGIT-SC14 (Fc fusion, VHH-Fc) VHH: EVQLVESGGGLVQPGGSLRLSCAASGSISSIHAMGWFRQAPGKEREFVATISRSGVGTFYADSVKGRFTISADNSKNTAYLQMNSLKPEDTAVYYCASSYSSSSGLGDIWGQGTLVTVSS', 0.61),
  ('TIGIT-SC137 (Fc fusion, VHH-Fc) VHH: EVQLVESGGGLVQPGGSLRLSCAASGFTLENNMMGWFRQAPGKEREFVAAISRSGTLKAYADSVKGRFTISADNSKNTAYLQMNSLKPEDTAVYYCSLVSGPRWYWGQGTLVTVSS', 0.306),
  ('TIGIT-SC21 (Fc fusion, VHH-Fc) VHH: EVQLVESGGGLVQPGGSLRLSCAASGNTFSGGFMGWFRQAPGKEREWVASVLRGGYTWYADSVKGRFTISADNSKNTAYLQMNSLKPEDTAVYYCARGGAGSDWFGPWGQGTLVTVSS', 0.607),
  ('TIGIT-SC13 (Fc fusion, VHH-Fc) VHH: EVQLVESGGGLVQPGGSLRLSCAASGRTFSFMGWFRQAPGKEREWVASVLRGGYTWYADSVKGRFTISADNSKNTAYLQMNSLKPEDTAVYYCATESMDYWGQGTLVTVSS', 0.666),
  ('TIGIT-SC135 (Fc fusion, VHH-Fc) VHH: EVQLVESGGGLVQPGGSLRLSCAASGFAFGDSWMGWFRQAPGKEREWVASVLRGGTLRAYAVSVKGRFTISADNSKNAAYLQMNSLKPEDTAVYYCARASIVGTTTLVWGQGTLVTVSS', 0.827),
  ('TIGIT-SC5 (Fc fusion, VHH-Fc) VHH: EVQLVESGGGLVQPGGSLRLSCAASGFAFGDSWMGWFRQAPGKEREWVASVLRGGYTWYADSVKGRFTISADNSKNTAYLQMNSLKPEDTAVYYCARESEGWFDPWGQGTLVTVSS', 0.564),
  ('TIGIT-SC193 (Fc fusion, VHH-Fc) VHH: EVQLVESGGGLVQPGGSLRLSCAASGFTFSDYWMGWFRQAPGKEREFVAAISRSGTLKAYADSVKGRFTISADNSKNTAYLQMNSLKPEDTAVYYCARGSGWPKIHFDYWGQGTLVTVSS', 0.151),
  ('TIGIT-SC85 (Fc fusion, VHH-Fc) VHH: EVQLVESGGGLVQPGGSLRLSCAASGRTFSPYTMGWFRQAPGKEREWVAGISQSGGSTAYADSVKGRFTISADNSKNTAYLQMNSLKPEDTAVYYCARDLNAMGDAYDIWGQGTLVTVSS', 0.768),
  ('TIGIT-SC203 (Fc fusion, VHH-Fc) VHH: EVQLVESGGGLVQPGGSLRLSCAASGFTFSPSWMGWFRQAPGKEREWVASVLRGGYTWYADSVKGRFTISADNSKNTAYLQMNSLKPEDTAVYYCARDRGGSDWGQGTLVTVSS', 0.521),
  ('TIGIT-SC198 (Fc fusion, VHH-Fc) VHH: EVQLVESGGGLVQPGGSLRLSCAASGFTFSPSWMGWFRQAPGKEREYVASVLRGGYTWYADSVKGRFTISADNSKNTAYLQMNSLKPEDTAVYYCASEGDPDYWGQGTLVTVSS', 0.514);
